Reported melting point is given for each of the following molecules.
Measured property: melting point

>>> experimental_value("CCCNC(=O)Nc1ccc(N2CCOCC2)cc1C(=O)NCC1CCN(C(c2ccccc2)c2ccccc2)CC1")
"215 to 217 °C"
>>> experimental_value("CCCCS(=O)c1ccc(C=O)nc1 (stereo not given)")
"90 to 91 °C"
>>> experimental_value("Cc1cc(C)c(O)c(Cc2cc(C)cc(C)c2O)c1")
"125 to 126 °C"
>>> experimental_value("CC1(O)CSC(=S)N1c1ccccn1 (stereo not given)")
"120 °C"
>>> experimental_value("COC(=O)CC/C(C)=C/Cc1c(NC(=O)N(C)C)c2c(c(C)c1OC)COC2=O")
"116 to 118 °C"
